Give collision cross section in nitrogen for every item shown.
experiment: collision cross section in nitrogen (drift tube, single-field); higher = larger gas-phase ion size; details: ion type: [M+H]; ion source: APCI; ion mode: Positive;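 further: chemical standards at 10 µM analysed by drift tube IMS-QTOF MS in about 3.95 torr nitrogen, mean of duplicate injections differing ≤1%, mass error below 10 ppm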
Structures can show the parent of a compound that is named as a salt.
One number for each entry, in Å².

Known collision cross section in nitrogen results, listed for orientation:
O=C1C=CC(=O)N1c1cccc(N2C(=O)C=CC2=O)c1 [N,N'-1,3-Phenylenedimaleimide] | 157.9
CCNc1nc(NC(C)C(C)C)nc(SC)n1 (centres undefined) | 165.4
CCCSc1ccc2[nH]c(NC(=O)OC)nc2c1 | 166.9
Nc1cccc(N)n1 | 118.9
CCc1ccc(CCOc2ccc(CC3SC(=O)NC3=O)cc2)nc1 (centres undefined) [Pioglitazone hydrochloride] | 178.8

For each listed entry, give its collision cross section in nitrogen.
1. Cc1c(-c2cccnc2)c2ccccc2n1CCCCC(=O)O
2. CCNc1nc(NCC)nc(SC)n1
3. CCOc1ccc(NC(=O)CC(C)O)cc1 (centres undefined) [3-Hydroxy-4-butyrophenetidide]
4. Cc1cc(=O)oc2cc(N(C)C)ccc12
5. CCCCC(O)(Cn1cncn1)c1ccc(Cl)cc1Cl (centres undefined)
6. Cc1cccc2sc3nncn3c12

[176.6, 149.6, 155.5, 140.9, 174.6, 136.3]

For each listed entry, give its collision cross section in nitrogen.
1. CN1[C@@H]2C[C@@H](OC(=O)[C@H](CO)c3ccccc3)C[C@H]1[C@@H]1O[C@@H]12 [Scopolamine hydrobromide]
2. CCCCSP(=O)(SCCCC)SCCCC
3. CCCOC(=O)c1ccc(C(=O)OCCC)nc1 [Dipropyl 2,5-pyridinedicarboxylate]
4. C[C@H]1C(=O)O[C@@H]2CCN3CC=C(COC(=O)[C@](C)(O)[C@]1(C)O)[C@H]23
5. NCCCN1CCN(CCCN)CC1

[170.8, 177.5, 163.2, 175.4, 150.3]

For each listed entry, give its collision cross section in nitrogen.
1. CN(C)CCN(Cc1cccs1)c1ccccn1 [Methapyrilene hydrochloride]
2. c1ccc(CNc2ncnc3c2ncn3C2CCCCO2)cc1 (centres undefined) [N-Benzyl-9-(tetrahydro-2H-pyran-2-yl)adenine]
3. CSc1nc(NC(C)C)nc(NC(C)C)n1

157.6
177.9
160.9

====

assay: collision cross section in nitrogen (drift tube, single-field); higher = larger gas-phase ion size; settings: ion type: [M+H]; ion source: ESI; ion mode: Positive
Structures can show the parent of a compound that is named as a salt.
Give collision cross section in nitrogen for every item shown.
Give bare numbers, in Å².

Known collision cross section in nitrogen results, listed for orientation:
Nc1cc(-c2ccncc2)c[nH]c1=O [Amrinone] | 143.3
Clc1ccc2c(c1)C(N1CCNCC1)=Nc1ccccc1O2 [Amoxapine] | 172.6
COc1ccc(C(=CC(=O)N2CCOCC2)c2ccc(Cl)cc2)cc1OC [Dimethomorph] | 199.2

For each listed entry, give its collision cross section in nitrogen.
1. CCc1cc(C)cc(CC)c1-c1c(OC(=O)C(C)(C)C)n2n(c1=O)CCOCC2 [Pinoxaden]
2. CC(C)(C)NC(=O)[C@@H]1CN(Cc2cccnc2)CCN1C[C@@H](O)C[C@@H](Cc1ccccc1)C(=O)N[C@H]1c2ccccc2C[C@H]1O [Indinavir sulfate]

[196.6, 262.3]

For each listed entry, give its collision cross section in nitrogen.
1. COc1nc(C)nc(N)n1 [2-Amino-4-methoxy-6-methyl-1,3,5-triazine]
2. c1ccc(Nc2ccccc2)cc1 [Diphenylamine]
3. CN(C)C(=O)C1(N2CCCCC2)CCN(CC[C@@]2(c3ccc(Cl)c(Cl)c3)CN(C(=O)c3ccccc3)CCO2)CC1

123.4
137.8
245.5

====

assay: collision cross section in nitrogen (drift tube, single-field); higher = larger gas-phase ion size; conditions: ion type: [M-H]; ion source: ESI; ion mode: Negative
outcome.measure: collision cross section in nitrogen (Å²)
Give bare numbers, in Å².

For each listed entry, give its collision cross section in nitrogen.
1. O=[N+]([O-])c1cc(C(F)(F)F)c(Cl)c([N+](=O)[O-])c1Nc1ncc(C(F)(F)F)cc1Cl
2. On1nnc2ccccc21 [1-Hydroxybenzotriazole]
3. COS(=O)(=O)c1ccccc1 [Methyl benzenesulphonate]
4. CCCOc1nn(C(=O)NS(=O)(=O)c2ccccc2C(=O)OC)c(=O)n1C [Propoxycarbazone-sodium]
5. NC(=O)c1ccc(N)nc1 [6-aminopyridine-3-carboxamide]
6. Oc1c(Cl)cc(Cl)c(Cl)c1Cl
7. Cc1ccn2nc(S(=O)(=O)Nc3c(F)cccc3F)nc2n1

1: 182.2; 2: 122.6; 3: 135; 4: 193.2; 5: 124.5; 6: 133.8; 7: 172.5

For each listed entry, give its collision cross section in nitrogen.
1. O=C1c2ccccc2C(=O)c2c(O)ccc(O)c21 [1,4-Dihydroxyanthracene-9,10-dione]
2. NS(=O)(=O)c1ccccc1Cl [2-Chlorobenzenesulfonamide]

1: 148.9; 2: 133.5

====

assay: collision cross section in nitrogen (drift tube, single-field); higher = larger gas-phase ion size; settings: ion type: [M+H]; ion source: ESI; ion mode: Positive
Where a name gives a salt, the structure may show the parent alone.
Give collision cross section in nitrogen for every item shown.
Numbers only, in Å².

c1ccc2[nH]nnc2c1 | 122.2
Fc1ccc(Oc2ccnc3cc(Cl)cc(Cl)c23)cc1 | 165.5
N=C(NCCCCCCNC(=N)NC(=N)Nc1ccc(Cl)cc1)NC(=N)Nc1ccc(Cl)cc1 | 222.4
CNC(=O)Oc1cccc(N=CN(C)C)c1 [Formetanate hydrochloride] | 156
COCC(=O)N(c1c(C)cccc1C)[C@H](C)C(=O)OC [Metalaxyl-M] | 160

For each listed entry, give its collision cross section in nitrogen.
1. Cc1ccc2[nH]nnc2c1
2. C=C(C)[C@H]1Cc2c(ccc3c2O[C@@H]2COc4cc(OC)c(OC)cc4[C@@H]2C3=O)O1
3. Nc1nc2[nH]cnc2c(=O)[nH]1
4. N#CC(C#N)=NNc1cccc(Cl)c1 [Carbonyl cyanide chlorophenylhydrazone]

[124.8, 194.8, 130.3, 142.8]

For each listed entry, give its collision cross section in nitrogen.
1. CN(CCCC(O)c1cccnc1)N=O (stereo not drawn)
2. C[C@]12CC[C@H]3[C@@H](CCC4=CC(=O)CC[C@@]43C)[C@@H]1CC[C@@H]2C(=O)CO [21-Hydroxyprogesterone]
3. Cc1[nH]nc2c1N=C(c1ccccc1Cl)c1cc([N+](=O)[O-])ccc1N2

146.4
185.7
180

For each listed entry, give its collision cross section in nitrogen.
1. Cc1cc(-c2cc(C)c(N)c(C)c2)cc(C)c1N
2. CCN(C(=O)c1cc(C)cc(OC[C@H](C)Nc2ccncc2)c1)C(C)C
3. NCc1cccc(C2CCN(C(=O)c3ccc(C#Cc4ccccc4F)o3)CC2)c1

1. 176
2. 186.4
3. 192.4

For each listed entry, give its collision cross section in nitrogen.
1. O=C(Nc1ccccc1)N(Cc1ccc(Cl)cc1)C1CCCC1
2. COP(=O)(OC)SCn1c(=O)oc2cc(Cl)cnc21
3. CCNc1nc(NC(C)(C)C)nc(OC)n1

1: 180.5; 2: 161.5; 3: 154.9

====

Give collision cross section in nitrogen for every item shown.
assay: collision cross section in nitrogen (drift tube, single-field); higher = larger gas-phase ion size; settings: ion type: [M+H]; ion source: ESI; ion mode: Positive
Numbers only, in Å².

For each listed entry, give its collision cross section in nitrogen.
1. Cc1cccc(N(C)C(=S)Oc2ccc3ccccc3c2)c1 [Tolnaftate]
2. OCC(CO)n1cnc(-c2ccc(F)cc2)c1-c1ccnc(Oc2ccccc2)n1
3. OC(Cc1ccccc1Cl)(Cn1cncn1)C1(Cl)CC1 (centres undefined)
4. CC(Oc1ccc(Oc2ncc(C(F)(F)F)cc2Cl)cc1)C(=O)O (centres undefined)
5. CC(C)(C)[C@H](O)[C@H](Cc1ccc(Cl)cc1)n1cncn1
6. CC1=C(C#N)C(=O)N(C)C(=O)C1 [1,2-Dihydro-6-hydroxy-1,4-dimethyl-2-oxonicotinonitrile]

1: 175.4; 2: 197.1; 3: 167; 4: 180; 5: 171.5; 6: 133.8

For each listed entry, give its collision cross section in nitrogen.
1. CCCc1c(OCCCOc2ccc(OCC(=O)O)cc2)ccc(C(C)=O)c1O
2. CCCCOC(=O)[C@@H](C)Oc1ccc(Oc2ccc(C(F)(F)F)cn2)cc1
3. O=S(=O)(c1ccc(OCc2ccccc2)cc1)c1ccccc1O

1. 186.1
2. 195.5
3. 186.1

====

assay: collision cross section in nitrogen (drift tube, single-field); higher = larger gas-phase ion size; conditions: ion type: [M-H]; ion source: ESI; ion mode: Negative
Counter-ions that a name gives are not always drawn.
Give collision cross section in nitrogen for every item shown.
Give bare numbers, in Å².

Known collision cross section in nitrogen results, listed for orientation:
CN(C)[C@@H]1C(O)=C(C(N)=O)C(=O)[C@@]2(O)C(O)=C3C(=O)c4c(O)cccc4[C@@](C)(O)[C@H]3[C@H](O)[C@@H]12 [Oxytetracycline hydrochloride] | 198.4
N#CCc1cccc(C(F)(F)F)c1 [[3-(Trifluoromethyl)phenyl]acetonitrile] | 129.1

For each listed entry, give its collision cross section in nitrogen.
1. CSC1=N[C@@](C)(c2ccccc2)C(=O)N1Nc1ccccc1
2. CCCCCCCCOS(=O)(=O)O [Sodium octyl sulfate]
3. Cc1ncc([C@@H](CCCCCCc2ccc3c(n2)NCCC3)CC(=O)O)cn1
4. COc1ccc([C@@H]2CC(=O)c3c(O)cc(O[C@@H]4O[C@H](CO[C@@H]5O[C@@H](C)[C@H](O)[C@@H](O)[C@H]5O)[C@@H](O)[C@H](O)[C@H]4O)cc3O2)cc1OC
5. COc1cc(C)cc(O)c1

1. 174.6
2. 151.3
3. 199.2
4. 245.2
5. 130.1
